# measured_target: GPR73 (prokineticin 1 receptor) (Homo sapiens)
# Construct: expressed in transfected cells; host or cells: HEK 293
# method: PK1 functional assay: Ca2+ mobilization screening for PK1 antagonists on the FLIPR
# Type: cell-based
# protocol_conditions: HEK293, 10 μM compound; HEK 293 GPR73 cells; multiple values = multiple testing; read-out: Ca^2+ Mobilization % Inh @ 10 μM
Catalogue of inhibition at 10 µM values
metric: inhibition at 10 µM (%)

>>> df
                                smiles_repr                           measured_target  recorded_value
0  COc1ccc(Cn2c(=O)nc(NCc3cnc(C)cc3C)n(Cc3ccc(SC)cc3)c2=O)cc1  GPR73 (prokineticin 1 receptor) (Homo sapiens)              62
1  CSc1ccc(Cn2c(=O)nc(NCc3cnc(C)cc3C)n(Cc3ccc(OC(F)F)cc3)c2=O)cc1  GPR73 (prokineticin 1 receptor) (Homo sapiens)              79
2  COc1ccc(Cn2c(NCc3cccc(N)n3)cc(=O)n(Cc3ccc(OC)cc3)c2=O)cc1  GPR73 (prokineticin 1 receptor) (Homo sapiens)              86
3  COc1ccc(Cn2c(NCc3cccn4ccnc34)nc(=O)n(Cc3ccc(OC)cc3)c2=O)cc1  GPR73 (prokineticin 1 receptor) (Homo sapiens)              66

###

# measured_target: GPR73 (prokineticin 1 receptor) (Homo sapiens, UniProt Q8TCW9)
# Construct: expressed in transfected cells; host or cells: HEK 293
# Sequence (Q8TCW9 whole entry, species assumed): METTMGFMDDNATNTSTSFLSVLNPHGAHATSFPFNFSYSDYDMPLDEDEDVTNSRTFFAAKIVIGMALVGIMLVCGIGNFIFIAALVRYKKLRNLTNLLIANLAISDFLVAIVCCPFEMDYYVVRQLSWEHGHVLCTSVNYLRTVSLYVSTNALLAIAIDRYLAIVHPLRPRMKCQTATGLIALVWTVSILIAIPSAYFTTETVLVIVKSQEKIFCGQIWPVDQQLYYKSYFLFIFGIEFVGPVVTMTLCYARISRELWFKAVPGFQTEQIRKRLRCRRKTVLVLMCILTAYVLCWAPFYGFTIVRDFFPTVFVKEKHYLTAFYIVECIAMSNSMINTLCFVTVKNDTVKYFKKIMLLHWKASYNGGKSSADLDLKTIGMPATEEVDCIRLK
# method: PK1 functional assay: Ca2+ mobilization screening for PK1 antagonists on the FLIPR
# Assay type: cell-based
# protocol_conditions: HEK293, 10 μM compound; HEK 293 GPR73 cells; multiple values = multiple testing; read-out: Ca^2+ Mobilization % Inh @ 10 μM
Kind request: treat 70% as inclusive, so inhibition at 10 µM at 70% or higher is rule met, anything lower is rule not met.

>>> print(df.to_string())
                                    molecule  assigned_class
 0  Cc1cc(CO)c(CNc2nc(=O)n(Cc3ccc4c(c3)CCO4)c(=O)n2Cc2ccc(OC(F)F)cc2)c(N)n1        rule met
 1  C=CCC(c1ccc(OC)cc1)n1c(=O)nc(NCc2cnc(C)cc2C)n(Cc2ccc(OC)cc2)c1=O (stereo not drawn)        rule met
 2  Cc1cc(C)c(CNc2nc(=O)n(CCOc3ccccc3)c(=O)n2Cc2ccc(OC(F)F)cc2)cn1        rule met
 3  COC(=O)c1ccc(Cn2c(=O)nc(NCc3cnc(C)cc3C)n(Cc3ccc(OC(F)F)cc3)c2=O)cc1    rule not met
 4  COc1ccc(Cn2c(=O)nc(NCc3cccnc3N)n(Cc3cccc4[nH]ccc34)c2=O)cc1    rule not met
 5  COc1ccc(Cn2c(SCc3cccnc3N)cc(=O)n(Cc3ccc(OC)cc3)c2=O)cc1        rule met
 6  COc1ccc(Cn2c(=O)nc(NCc3cnc(C)cc3C)n(Cc3ccncc3)c2=O)cc1    rule not met
 7  COc1ccc(Cn2c(=O)nc(NCc3cccnc3N)n(Cc3ccccc3C#N)c2=O)cc1    rule not met
 8  COc1ccc(Cn2c(=O)nc(NCc3cccnc3N)n(Cc3ccc(OC)nc3)c2=O)cc1        rule met
 9  CCNc1ncccc1CNc1nc(=O)n(Cc2ccc(F)cc2)c(=O)n1Cc1ccc(OC)cc1        rule met
10  COc1ccc(Cn2c(NCc3cccnc3N)nc(=O)n(Cc3ccc4[nH]ccc4c3)c2=O)cc1    rule not met
11  COc1ccc(Cn2c(=O)nc(NCc3cnc(C)cc3C)n(Cc3ccc(S(C)(=O)=O)cc3)c2=O)cc1        rule met
12  COc1ccc(Cn2c(NCc3c(N)nc(C)c(C)c3C)nc(=O)n(Cc3ccc(OC)cc3)c2=O)cc1        rule met
13  CCCc1cc(CCC)c(CNc2nc(=O)n(Cc3ccc(OC)cc3)c(=O)n2Cc2ccc(OC)cc2)c(N)n1        rule met

###

# measured_target: GPR73 (prokineticin 1 receptor) (Homo sapiens, UniProt Q8TCW9)
# method: PK1 functional assay: Ca2+ mobilization screening for PK1 antagonists on the FLIPR
# protocol_conditions: HEK 293 GPR73 cells; PK1 ligand preparation at its EC50; multiple values = multiple testing; read-out: Ca^2+ Mobilization IC50
pIC50: −log10 of the molar value.
Kind request: treat 6 as inclusive, so pIC50 at 6 or higher is rule met, anything lower is rule not met.

>>> df
                                    compound  assigned_class
 0  COc1ccc(Cn2c(NCCc3ccccn3)nc(=O)n(Cc3ccc(Cl)c(Cl)c3)c2=O)cc1    rule not met
 1  COc1ccc(Cn2c(NCc3ccc[n+]([O-])c3)nc(=O)n(Cc3ccc(OC)cc3)c2=O)cc1    rule not met
 2  COc1ccc(Cn2c(NCc3c(C)cc(C)nc3N3CCCCC3)nc(=O)n(Cc3ccc(OC)cc3)c2=O)cc1    rule not met
 3  COc1ccc(Cn2c(NCc3cccnc3N)nc(=O)n(Cc3ccc(-n4cccn4)cc3)c2=O)cc1    rule not met
 4  COc1ccc(Cn2c(=O)nc(NCc3cnc(C)cc3C)n(Cc3ccc(OC)cc3F)c2=O)cc1        rule met
 5  COc1ccc(Cn2c(OC(C)c3ccnc(N)c3)cc(=O)n(Cc3ccc(OC)cc3)c2=O)cc1 (stereo not drawn)    rule not met
 6  Cc1cc(C)c(CNc2nc(=O)n(Cc3ccc4c(c3)nnn4C)c(=O)n2Cc2ccc3c(c2)CCO3)cn1    rule not met
 7  Cn1nnc2cc(Cn3c(=O)nc(NCc4cccnc4N)n(Cc4ccc5c(c4)CCO5)c3=O)ccc21        rule met
 8  COc1ccc(Cn2c(OCc3cccnc3)cc(=O)n(Cc3ccc(OC)cc3)c2=O)cc1    rule not met
 9  COc1ccc(Cn2c(NCc3cccnc3N3CCSCC3)nc(=O)n(Cc3ccc(F)cc3)c2=O)cc1    rule not met
10  COCCNc1ncccc1CNc1nc(=O)n(CCc2ccc([N+](=O)[O-])cc2)c(=O)n1Cc1ccc(OC)cc1    rule not met
11  CCOc1ccc(Cn2c(=O)nc(NCc3cccnc3N)n(Cc3ccc(OC)cc3)c2=O)cc1        rule met
12  COc1ccc(Cn2c(NCc3cccnc3N)nc(=O)n(CC3COc4ccccc4O3)c2=O)cc1 (stereo not drawn)    rule not met
13  COc1ccc(Cn2c(NCc3cccnc3NCCN(C)C)nc(=O)n(Cc3ccc(F)cc3)c2=O)cc1        rule met
14  CCCNc1ncccc1CNc1nc(=O)n(Cc2ccc(OC)cc2)c(=O)n1Cc1ccc(OC)cc1        rule met
15  COc1ccc(Cn2c(=O)nc(NCc3cccnc3N)n(Cc3ccc(Cl)c(Cl)c3)c2=O)cc1    rule not met

###

# measured_target: GPR73 (prokineticin 1 receptor) (Homo sapiens, UniProt Q8TCW9)
# Construct: expressed in transfected cells; host or cells: HEK 293
# method: PK1 functional assay: Ca2+ mobilization screening for PK1 antagonists on the FLIPR
# Type: cell-based
# protocol_conditions: HEK293, 10 μM compound; HEK 293 GPR73 cells; multiple values = multiple testing; read-out: Ca^2+ Mobilization % Inh @ 10 μM
# Description: At a time of 24 h prior to running the assay, in cell culture media (DMEM containing high Glucose and L-glutamine, 10% FBS, 1% Pen/Streptomycin, 1% Sodium Pyruvate, 20 mM HEPES, Zeocin 200 mg/L), 100 μL of 1.3*10^6/ml HEK 293 GPR73 (prokineticin 1 receptor) expressing cells were plated in a 96 well poly-d-lysine coated plate (Costar), and incubated at 37 C and 5% CO2. […] Baseline is described as the amount of relative fluorescence read when buffer alone is added to cells. […]
Kind request: treat 50% as inclusive, so inhibition at 10 µM at 50% or higher is y, anything lower is n.

>>> print(df.to_string())
                                   compound                           measured_target  assigned_class
0  COc1ccc(Cn2c(=O)nc(NCc3cccnc3N)n(Cc3ccc(SC)cc3)c2=O)cc1 [Cpd 75]  GPR73 (prokineticin 1 receptor) (Homo sapiens, UniProt Q8TCW9)               y
1  COC(=O)c1ccc(Cn2c(=O)nc(NCc3cccnc3N)n(Cc3ccc(OC)cc3)c2=O)cc1 [Cpd 56]  GPR73 (prokineticin 1 receptor) (Homo sapiens, UniProt Q8TCW9)               n
2  COc1ccc(Cn2c(=O)nc(NCc3cccnc3N)n(Cc3cccc4cc[nH]c34)c2=O)cc1 [Cpd 171]  GPR73 (prokineticin 1 receptor) (Homo sapiens, UniProt Q8TCW9)               n
3  Cc1cc(C)c(CNc2nc(=O)n(Cc3ccc4[nH]ccc4c3)c(=O)n2Cc2ccc(OC(F)F)cc2)cn1 [Cpd 227]  GPR73 (prokineticin 1 receptor) (Homo sapiens, UniProt Q8TCW9)               n
4  COc1ccc(Cn2c(NCc3cccnc3N)nc(=O)n(Cc3ccccc3OC)c2=O)cc1 [Cpd 143]  GPR73 (prokineticin 1 receptor) (Homo sapiens, UniProt Q8TCW9)               n
5  COc1ccc(Cn2c(NCc3cccnc3N)nc(=O)n(Cc3ccc(OC(F)F)cc3)c2=O)cc1 [Cpd 84]  GPR73 (prokineticin 1 receptor) (Homo sapiens, UniProt Q8TCW9)               y
